SUBJECT_OF_TEST: T1, human IL-23R endogenously expressed on DB cells (CRL-2289) (human, UniProt Q5VWK5 24-629)
T1 sequence (looked up): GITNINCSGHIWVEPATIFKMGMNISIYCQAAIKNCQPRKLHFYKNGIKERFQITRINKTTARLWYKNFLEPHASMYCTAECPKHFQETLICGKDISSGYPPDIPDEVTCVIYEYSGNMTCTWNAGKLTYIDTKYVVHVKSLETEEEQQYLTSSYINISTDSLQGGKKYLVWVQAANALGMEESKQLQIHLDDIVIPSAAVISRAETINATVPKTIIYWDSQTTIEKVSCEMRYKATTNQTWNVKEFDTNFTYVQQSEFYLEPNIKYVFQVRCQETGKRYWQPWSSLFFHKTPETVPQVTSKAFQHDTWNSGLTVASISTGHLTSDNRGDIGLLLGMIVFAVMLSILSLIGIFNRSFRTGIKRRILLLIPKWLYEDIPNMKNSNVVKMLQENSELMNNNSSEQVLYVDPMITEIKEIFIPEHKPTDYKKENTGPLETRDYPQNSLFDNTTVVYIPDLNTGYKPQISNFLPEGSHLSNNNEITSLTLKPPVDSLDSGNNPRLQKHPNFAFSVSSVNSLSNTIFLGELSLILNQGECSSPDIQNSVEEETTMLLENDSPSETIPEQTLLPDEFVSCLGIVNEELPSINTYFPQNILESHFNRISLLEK
PROCEDURE_TEXT: cell-based or functional assay
*1 amine or outer side, *2 acyl side, *3 side chain or, on linkers, in order; H or OH if unused. Bridges are numbered along the chain shown (N, C = ends). [ ]: non-standard residue; d: D form. 2Nal = N[C@@H](Cc1ccc2ccccc2c1)C(=O)O; αMeL = CC(C)C[C@](C)(N)C(=O)O; CH2COCH2 = O=C(C[*:1])C[*:2]
READOUT: IC50 (pSTAT3) (nM)
Answer format: numeric, nM implied, no suffix.

Prompt line: Which value of IC50 (pSTAT3) has been reported for Ac-DESCWQCW[2Nal][αMeL]KENG-NH2 (lactam 2-11; linker 4-7 via CH2COCH2; SMILES CC(=O)N[C@@H](CC(=O)O)C(=O)N[C@H]1CCC(=O)NCCCC[C@@H](C(=O)N[C@@H](CCC(=O)O)C(=O)N[C@@H](CC(N)=O)C(=O)NCC(N)=O)NC(=O)[C@](C)(CC(C)C)NC(=O)[C@H](Cc2ccc3ccccc3c2)NC(=O)[C@H](Cc2c[nH]c3ccccc23)NC(=O)[C@@H]2CSCC(=O)CSC[C@H](NC(=O)[C@H](CO)NC1=O)C(=O)N[C@@H](Cc1c[nH]c3ccccc13)C(=O)N[C@@H](CCC(N)=O)C(=O)N2) [Compound 58] in the records?
Response line: 597

Values compiled from patent US20250154198A1.
